- TESTED ON: human Adenosine A3 receptor (Homo sapiens, UniProt P0DMS8)
- Sequence (P0DMS8 whole entry): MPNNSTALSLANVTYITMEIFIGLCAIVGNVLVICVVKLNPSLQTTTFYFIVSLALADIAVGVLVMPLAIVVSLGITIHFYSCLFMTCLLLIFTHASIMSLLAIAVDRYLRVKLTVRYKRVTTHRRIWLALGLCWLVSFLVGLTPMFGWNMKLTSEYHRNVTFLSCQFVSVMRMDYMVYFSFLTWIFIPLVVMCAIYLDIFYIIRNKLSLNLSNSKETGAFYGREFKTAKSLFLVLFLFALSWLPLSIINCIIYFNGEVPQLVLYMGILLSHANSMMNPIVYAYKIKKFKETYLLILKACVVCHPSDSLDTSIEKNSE
pKi: −log10 of the molar value.
READOUT LABEL: pKi

MOLECULE	READOUT LABEL	MEASUREMENT
Cc1cc(-c2c(-c3cccc(C#N)c3)nn3ccc(C(=O)N[C@@H](C)[C@H](O)CO)nc23)cc(Cl)n1	pKi	5.85

[A] CC(C)(C)OC(=O)N1CC=C(c2ccn3nc(-c4ccco4)c(C#N)c3n2)CC1
[B] Cc1cc(-c2c(-c3cccc(C#N)c3)nn3ccc(C(=O)NCC4CCCNC4=O)nc23)cc(C)n1 (stereo not shown)
Task: Return label of the item with the larger pKi. Candidates: A , B . Refer to your chosen entry by its label in the reply.
Result: B
